- TARGET_OR_TEST_SYSTEM: hNav1.7 (Homo sapiens)
- Sequence (Q15858 1-1977 isoform Q15858-3): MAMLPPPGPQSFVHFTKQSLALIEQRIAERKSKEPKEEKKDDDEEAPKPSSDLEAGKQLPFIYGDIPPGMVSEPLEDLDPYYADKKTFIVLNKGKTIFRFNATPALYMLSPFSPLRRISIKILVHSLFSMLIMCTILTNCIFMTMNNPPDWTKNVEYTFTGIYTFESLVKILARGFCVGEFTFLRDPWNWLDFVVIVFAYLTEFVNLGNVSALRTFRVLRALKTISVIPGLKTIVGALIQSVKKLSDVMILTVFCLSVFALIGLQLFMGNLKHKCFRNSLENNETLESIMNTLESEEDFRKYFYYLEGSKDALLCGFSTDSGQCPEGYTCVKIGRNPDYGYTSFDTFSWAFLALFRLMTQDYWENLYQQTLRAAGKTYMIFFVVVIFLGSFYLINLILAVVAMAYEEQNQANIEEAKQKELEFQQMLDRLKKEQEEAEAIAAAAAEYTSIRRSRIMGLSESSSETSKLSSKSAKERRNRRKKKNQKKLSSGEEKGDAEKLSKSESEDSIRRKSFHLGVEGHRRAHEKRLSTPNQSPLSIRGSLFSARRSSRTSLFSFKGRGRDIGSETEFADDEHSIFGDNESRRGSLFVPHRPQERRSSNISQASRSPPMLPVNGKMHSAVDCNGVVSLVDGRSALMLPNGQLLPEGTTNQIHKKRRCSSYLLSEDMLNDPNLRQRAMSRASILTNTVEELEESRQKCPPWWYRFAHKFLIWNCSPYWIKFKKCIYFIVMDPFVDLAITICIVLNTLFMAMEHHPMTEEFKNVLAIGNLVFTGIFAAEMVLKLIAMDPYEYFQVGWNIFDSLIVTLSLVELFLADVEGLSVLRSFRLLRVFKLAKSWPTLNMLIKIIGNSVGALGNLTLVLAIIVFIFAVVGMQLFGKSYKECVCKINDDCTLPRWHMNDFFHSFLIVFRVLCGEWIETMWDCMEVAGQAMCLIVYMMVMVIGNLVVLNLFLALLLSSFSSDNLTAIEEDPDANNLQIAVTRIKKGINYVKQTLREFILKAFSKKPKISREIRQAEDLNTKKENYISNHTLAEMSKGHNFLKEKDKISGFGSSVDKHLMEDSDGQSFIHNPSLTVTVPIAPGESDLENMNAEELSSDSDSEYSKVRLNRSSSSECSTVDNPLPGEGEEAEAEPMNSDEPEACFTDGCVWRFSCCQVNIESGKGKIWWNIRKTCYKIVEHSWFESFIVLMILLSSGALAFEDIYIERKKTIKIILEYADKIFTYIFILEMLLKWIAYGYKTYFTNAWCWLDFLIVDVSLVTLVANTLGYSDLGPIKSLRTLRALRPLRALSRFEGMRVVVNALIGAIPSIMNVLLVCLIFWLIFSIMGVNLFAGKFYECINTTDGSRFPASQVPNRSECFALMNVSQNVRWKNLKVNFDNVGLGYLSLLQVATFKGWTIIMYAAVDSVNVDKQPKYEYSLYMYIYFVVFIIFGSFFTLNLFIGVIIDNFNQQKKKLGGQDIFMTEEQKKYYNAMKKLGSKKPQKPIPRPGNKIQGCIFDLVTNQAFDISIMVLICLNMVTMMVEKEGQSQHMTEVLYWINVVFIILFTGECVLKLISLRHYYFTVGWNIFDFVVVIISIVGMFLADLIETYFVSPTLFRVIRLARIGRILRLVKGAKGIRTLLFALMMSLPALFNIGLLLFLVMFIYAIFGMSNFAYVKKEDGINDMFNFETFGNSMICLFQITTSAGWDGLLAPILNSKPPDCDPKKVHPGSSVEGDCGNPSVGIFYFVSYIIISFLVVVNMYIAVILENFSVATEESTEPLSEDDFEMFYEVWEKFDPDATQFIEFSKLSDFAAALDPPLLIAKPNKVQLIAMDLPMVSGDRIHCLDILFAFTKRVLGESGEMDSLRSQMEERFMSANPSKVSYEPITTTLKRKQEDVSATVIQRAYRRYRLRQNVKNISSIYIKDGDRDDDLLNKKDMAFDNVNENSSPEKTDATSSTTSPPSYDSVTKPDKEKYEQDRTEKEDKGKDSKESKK
- EXPERIMENTAL_PARAMETERS: read-out: Nav1.7 Activity (μM) EP assay Ki; affinity for the inactivated state of the channel; hNav1.7 HEK-293 cells
Below: a set of entries, each annotated with reported Ki.
Record the value in µM, omitting the unit from your answer.

Need Ki of CC(=O)N1c2ccc(Cl)cc2CCc2cc(-c3cccc(C(N)=O)n3)ccc21 , thanks.
3.03

Further cases:
Need Ki of CN1c2ccc(-c3cccc([C@H](O)CO)n3)cc2CCc2cc(C(F)(F)F)ccc21 , thanks.
1.03

Need Ki of NC(=O)c1cccc(-c2ccc3c(c2)CCc2cc(Cl)ccc2N3)n1 , thanks.
0.648
